details: in ethanol, 293.15 K
measurement.name: solubility (mole fraction)
// print number alone

In: Recall and state the measured solubility (mole fraction) for N#CC(c1ccc(Cl)cc1)c1c(Cl)cc(-n2ncc(=O)[nH]c2=O)cc1Cl (stereo unspecified) .
Out: 0.00245

---

conditions: in n-butanol, 323.15 K
measurement.name: solubility (mole fraction)

In: Recall and state the measured solubility (mole fraction) for N#CC(c1ccc(Cl)cc1)c1c(Cl)cc(-n2ncc(=O)[nH]c2=O)cc1Cl (stereo unspecified) .
Out: 0.0036

---

settings: in toluene, 323.15 K
measurement.name: solubility (mole fraction)
// print number alone

In: Recall and state the measured solubility (mole fraction) for N#CC(c1ccc(Cl)cc1)c1c(Cl)cc(-n2ncc(=O)[nH]c2=O)cc1Cl (stereo unspecified) .
Out: 0.0027

---

conditions: in acetone, 308.15 K
measurement.name: solubility (mole fraction)
// print number alone

In: Recall and state the measured solubility (mole fraction) for N#CC(c1ccc(Cl)cc1)c1c(Cl)cc(-n2ncc(=O)[nH]c2=O)cc1Cl (stereo unspecified) .
Out: 0.0247

---

details: in ethanol, 303.15 K
measurement.name: solubility (mole fraction)
// print number alone

In: Recall and state the measured solubility (mole fraction) for N#CC(c1ccc(Cl)cc1)c1c(Cl)cc(-n2ncc(=O)[nH]c2=O)cc1Cl (stereo unspecified) .
Out: 0.00347

---

conditions: in ethanol, 298.15 K
measurement.name: solubility (mole fraction)

In: Recall and state the measured solubility (mole fraction) for N#CC(c1ccc(Cl)cc1)c1c(Cl)cc(-n2ncc(=O)[nH]c2=O)cc1Cl (stereo unspecified) .
Out: 0.00293

---

settings: in DMF, 303.15 K
measurement.name: solubility (mole fraction)
// print number alone

In: Recall and state the measured solubility (mole fraction) for N#CC(c1ccc(Cl)cc1)c1c(Cl)cc(-n2ncc(=O)[nH]c2=O)cc1Cl (stereo unspecified) .
Out: 0.0372

---

details: in isopropanol, 298.15 K
measurement.name: solubility (mole fraction)

In: Recall and state the measured solubility (mole fraction) for N#CC(c1ccc(Cl)cc1)c1c(Cl)cc(-n2ncc(=O)[nH]c2=O)cc1Cl (stereo unspecified) .
Out: 0.00163

---

conditions: in methanol, 298.15 K
measurement.name: solubility (mole fraction)
// print number alone

In: Recall and state the measured solubility (mole fraction) for N#CC(c1ccc(Cl)cc1)c1c(Cl)cc(-n2ncc(=O)[nH]c2=O)cc1Cl (stereo unspecified) .
Out: 0.00369

---

conditions: in n-butanol, 318.15 K
measurement.name: solubility (mole fraction)
// print number alone

In: Recall and state the measured solubility (mole fraction) for N#CC(c1ccc(Cl)cc1)c1c(Cl)cc(-n2ncc(=O)[nH]c2=O)cc1Cl (stereo unspecified) .
Out: 0.00288

---

conditions: in isopropanol, 283.15 K
measurement.name: solubility (mole fraction)
// print number alone

In: Recall and state the measured solubility (mole fraction) for N#CC(c1ccc(Cl)cc1)c1c(Cl)cc(-n2ncc(=O)[nH]c2=O)cc1Cl (stereo unspecified) .
Out: 0.000798

---

conditions: in n-propanol, 293.15 K
measurement.name: solubility (mole fraction)
// print number alone

In: Recall and state the measured solubility (mole fraction) for N#CC(c1ccc(Cl)cc1)c1c(Cl)cc(-n2ncc(=O)[nH]c2=O)cc1Cl (stereo unspecified) .
Out: 0.00179

---

conditions: in acetone, 283.15 K
measurement.name: solubility (mole fraction)
// print number alone

In: Recall and state the measured solubility (mole fraction) for N#CC(c1ccc(Cl)cc1)c1c(Cl)cc(-n2ncc(=O)[nH]c2=O)cc1Cl (stereo unspecified) .
Out: 0.012

---

conditions: in ethyl acetate, 283.15 K
measurement.name: solubility (mole fraction)
// print number alone

In: Recall and state the measured solubility (mole fraction) for N#CC(c1ccc(Cl)cc1)c1c(Cl)cc(-n2ncc(=O)[nH]c2=O)cc1Cl (stereo unspecified) .
Out: 0.0052

---

details: in n-propanol, 308.15 K
measurement.name: solubility (mole fraction)

In: Recall and state the measured solubility (mole fraction) for N#CC(c1ccc(Cl)cc1)c1c(Cl)cc(-n2ncc(=O)[nH]c2=O)cc1Cl (stereo unspecified) .
Out: 0.00321

---

conditions: in acetonitrile, 303.15 K
measurement.name: solubility (mole fraction)

In: Recall and state the measured solubility (mole fraction) for N#CC(c1ccc(Cl)cc1)c1c(Cl)cc(-n2ncc(=O)[nH]c2=O)cc1Cl (stereo unspecified) .
Out: 0.0157

---

settings: in DMF, 288.15 K
measurement.name: solubility (mole fraction)

In: Recall and state the measured solubility (mole fraction) for N#CC(c1ccc(Cl)cc1)c1c(Cl)cc(-n2ncc(=O)[nH]c2=O)cc1Cl (stereo unspecified) .
Out: 0.028

---

details: in ethanol, 283.15 K
measurement.name: solubility (mole fraction)
// print number alone

In: Recall and state the measured solubility (mole fraction) for N#CC(c1ccc(Cl)cc1)c1c(Cl)cc(-n2ncc(=O)[nH]c2=O)cc1Cl (stereo unspecified) .
Out: 0.00168

---

conditions: in n-propanol, 323.15 K
measurement.name: solubility (mole fraction)
// print number alone

In: Recall and state the measured solubility (mole fraction) for N#CC(c1ccc(Cl)cc1)c1c(Cl)cc(-n2ncc(=O)[nH]c2=O)cc1Cl (stereo unspecified) .
Out: 0.00543

---

conditions: in n-butanol, 293.15 K
measurement.name: solubility (mole fraction)
// print number alone

In: Recall and state the measured solubility (mole fraction) for N#CC(c1ccc(Cl)cc1)c1c(Cl)cc(-n2ncc(=O)[nH]c2=O)cc1Cl (stereo unspecified) .
Out: 0.000851

---

conditions: in DMF, 308.15 K
measurement.name: solubility (mole fraction)

In: Recall and state the measured solubility (mole fraction) for N#CC(c1ccc(Cl)cc1)c1c(Cl)cc(-n2ncc(=O)[nH]c2=O)cc1Cl (stereo unspecified) .
Out: 0.0407

---

details: in methanol, 293.15 K
measurement.name: solubility (mole fraction)
// print number alone

In: Recall and state the measured solubility (mole fraction) for N#CC(c1ccc(Cl)cc1)c1c(Cl)cc(-n2ncc(=O)[nH]c2=O)cc1Cl (stereo unspecified) .
Out: 0.00316

---

conditions: in DMF, 298.15 K
measurement.name: solubility (mole fraction)
// print number alone

In: Recall and state the measured solubility (mole fraction) for N#CC(c1ccc(Cl)cc1)c1c(Cl)cc(-n2ncc(=O)[nH]c2=O)cc1Cl (stereo unspecified) .
Out: 0.0339

Reference source for all entries: BigSolDB 2.1
